I'd appreciate it if you could supply self-splicing fitness (ln) values for the items below.
assay: self-splicing fitness, log relative to wild type (ln ratio); higher = more splicing; Tetrahymena group I intron in knt gene, E. coli kanamycin selection, DiMSum; sequences stand for … in CUCUCU…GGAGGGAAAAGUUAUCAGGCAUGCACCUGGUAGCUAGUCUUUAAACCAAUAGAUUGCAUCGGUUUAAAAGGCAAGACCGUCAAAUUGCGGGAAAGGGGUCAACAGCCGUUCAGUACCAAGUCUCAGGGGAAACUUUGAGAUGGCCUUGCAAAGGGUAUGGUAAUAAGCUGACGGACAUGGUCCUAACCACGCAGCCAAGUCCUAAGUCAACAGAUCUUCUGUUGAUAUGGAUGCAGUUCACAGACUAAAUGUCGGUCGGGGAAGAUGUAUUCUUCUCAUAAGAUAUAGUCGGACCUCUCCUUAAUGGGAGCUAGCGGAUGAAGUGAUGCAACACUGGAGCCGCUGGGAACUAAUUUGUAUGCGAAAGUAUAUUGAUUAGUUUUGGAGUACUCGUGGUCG; settings: 37 °C;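 also: selection with 25 µg/mL kanamycin versus none on LB agar overnight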
Give bare numbers.

Examples from the recorded data:
# lookup: self-splicing fitness (ln) of `UGCUAGCAAUAUUACGUAGA`
-0.929

Return reported self-splicing fitness (ln); argument: `GUAGAGCAAUAUUACGAUCA`
-0.907

Provide the reported self-splicing fitness (ln) of each entry below, same order.
1. UCUGAGCAAUAUUACGUGAG
2. CUUUAGCAAUAUUACGGGGA
3. GAAUAGCAAUAUUACGUUCG
4. ACUAAGCAAUAUUACGCGCG
5. AGACAGCAAUAUUACGGAAU
6. UUGCAGCAAUAUUACGCGUA

1: -0.646; 2: -1.38; 3: -0.541; 4: -0.0128; 5: -2.29; 6: -0.457

---

test: self-splicing fitness, log relative to wild type (ln ratio); higher = more splicing; Tetrahymena group I intron in knt gene, E. coli kanamycin selection, DiMSum; sequences stand for … in CUCUCU…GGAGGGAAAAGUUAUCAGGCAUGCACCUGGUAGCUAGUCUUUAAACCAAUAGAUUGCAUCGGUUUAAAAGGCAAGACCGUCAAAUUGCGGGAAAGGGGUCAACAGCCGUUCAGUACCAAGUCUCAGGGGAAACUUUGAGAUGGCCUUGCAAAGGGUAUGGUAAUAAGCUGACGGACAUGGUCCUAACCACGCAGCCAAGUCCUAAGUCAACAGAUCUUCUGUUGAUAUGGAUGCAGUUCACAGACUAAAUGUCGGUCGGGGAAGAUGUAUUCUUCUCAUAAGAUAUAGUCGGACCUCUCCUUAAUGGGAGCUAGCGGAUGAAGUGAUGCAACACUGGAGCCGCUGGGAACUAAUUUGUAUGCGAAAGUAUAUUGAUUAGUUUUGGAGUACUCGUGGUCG; conditions: 30 °C
Endpoint Name: self-splicing fitness (ln)

Batch of 2 sequences: report self-splicing fitness (ln) for each.
1. UCCGAGCAAUAUUACGCCAG
2. AUGCAGCAAUAUUACGCAGA

-3.95
-2.98

---

assay: self-splicing fitness, log relative to wild type (ln ratio); higher = more splicing; Tetrahymena group I intron in knt gene, E. coli kanamycin selection, DiMSum; sequences stand for … in CUCUCU…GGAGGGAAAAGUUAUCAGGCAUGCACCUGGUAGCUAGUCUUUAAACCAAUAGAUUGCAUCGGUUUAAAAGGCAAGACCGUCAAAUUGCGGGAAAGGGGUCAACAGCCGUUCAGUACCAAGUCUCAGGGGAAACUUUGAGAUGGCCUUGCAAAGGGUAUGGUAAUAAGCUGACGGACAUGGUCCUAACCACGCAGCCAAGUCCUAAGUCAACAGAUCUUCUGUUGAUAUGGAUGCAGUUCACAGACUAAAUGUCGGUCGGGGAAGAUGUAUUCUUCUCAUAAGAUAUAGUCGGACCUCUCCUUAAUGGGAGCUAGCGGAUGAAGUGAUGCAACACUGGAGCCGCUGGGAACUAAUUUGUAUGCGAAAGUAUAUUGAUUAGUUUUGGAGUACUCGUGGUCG; conditions: 37 °C
Give measured self-splicing fitness (ln) for each item. Keep answers brief.
Give bare numbers.

Recorded results for 8 sequences are shown here.
Requested read-out: self-splicing fitness (ln). Entry: `GACUAGCAAUAUUACGGGAC`
-1.44

Name the reported self-splicing fitness (ln) value associated with the sequence `ACCUAGCAAUAUUACGAGAU`
-1.3

Record request: self-splicing fitness (ln) value, item `UCCGAGCAAUAUUACGACGC`
-1.61

What value of self-splicing fitness (ln) has been reported for the following sequence? `GUUCAGCAAUAUUACGAAUG`
0.0253

Query: self-splicing fitness (ln); subject: `CCAGAGCAAUAUUACGAAAU`
-2.93

Which self-splicing fitness (ln) value is on record for `UUUGAGCAAUAUUACGUAAA` ?
-1.45

Given the entry `GGCCAGCAAUAUUACGACCU` , report its measured self-splicing fitness (ln).
-0.345

Which self-splicing fitness (ln) reading was recorded for the sequence `GGGCAGCAAUAUUACGUCUU` ?
0.0306

Give self-splicing fitness (ln) for all sequences that follow.
1. UUUCAGCAAUAUUACGUCCU
2. CAUAAGCAAUAUUACGGAGG

1. -1.32
2. -0.959

List reported self-splicing fitness (ln) for each of these sequences:
1. CUCCAGCAAUAUUACGGACC
2. UACCAGCAAUAUUACGCGAC
3. UGGCAGCAAUAUUACGUUGA
4. UCGUAGCAAUAUUACGACUA
5. GAACAGCAAUAUUACGCAAG
6. AGUUAGCAAUAUUACGAAAG
7. UAUUAGCAAUAUUACGACUU

[-2.64, -1.58, -0.707, -0.0995, -1.41, -2.82, -0.537]

---

experiment: self-splicing fitness, log relative to wild type (ln ratio); higher = more splicing; Tetrahymena group I intron in knt gene, E. coli kanamycin selection, DiMSum; sequences stand for … in CUCUCU…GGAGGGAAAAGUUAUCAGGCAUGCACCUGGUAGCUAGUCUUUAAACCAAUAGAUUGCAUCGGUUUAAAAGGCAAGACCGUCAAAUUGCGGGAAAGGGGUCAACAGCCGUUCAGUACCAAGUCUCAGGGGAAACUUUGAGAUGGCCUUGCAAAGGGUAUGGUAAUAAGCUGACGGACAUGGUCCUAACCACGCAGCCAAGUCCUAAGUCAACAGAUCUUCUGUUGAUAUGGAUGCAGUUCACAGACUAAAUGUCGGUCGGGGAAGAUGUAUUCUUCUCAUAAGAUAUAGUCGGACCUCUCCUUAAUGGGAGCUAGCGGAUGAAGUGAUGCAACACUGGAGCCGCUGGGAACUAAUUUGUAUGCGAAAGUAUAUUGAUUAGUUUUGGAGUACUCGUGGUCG; settings: 37 °C
Would you mind labelling by self-splicing fitness (ln)? At or over -1 is label 1, under is label 0.

Is self-splicing fitness (ln) at least -1? Consider `CCGCAGCAAUAUUACGCCUC`
label 0

Could you verify whether the entry `CACUAGCAAUAUUACGGACC` shows self-splicing fitness (ln) of no less than -1?
label 0

Others:
Can `CUCCAGCAAUAUUACGGGUC` be said to have self-splicing fitness (ln) at or above -1?
label 0

# bool: self-splicing fitness (ln) of `ACCCAGCAAUAUUACGCCUG` >= -1
label 0

Assess whether reported self-splicing fitness (ln) for `AGCUAGCAAUAUUACGUGUA` sits at -1 or higher.
label 0

---

experiment: self-splicing fitness, log relative to wild type (ln ratio); higher = more splicing; Tetrahymena group I intron in knt gene, E. coli kanamycin selection, DiMSum; sequences stand for … in CUCUCU…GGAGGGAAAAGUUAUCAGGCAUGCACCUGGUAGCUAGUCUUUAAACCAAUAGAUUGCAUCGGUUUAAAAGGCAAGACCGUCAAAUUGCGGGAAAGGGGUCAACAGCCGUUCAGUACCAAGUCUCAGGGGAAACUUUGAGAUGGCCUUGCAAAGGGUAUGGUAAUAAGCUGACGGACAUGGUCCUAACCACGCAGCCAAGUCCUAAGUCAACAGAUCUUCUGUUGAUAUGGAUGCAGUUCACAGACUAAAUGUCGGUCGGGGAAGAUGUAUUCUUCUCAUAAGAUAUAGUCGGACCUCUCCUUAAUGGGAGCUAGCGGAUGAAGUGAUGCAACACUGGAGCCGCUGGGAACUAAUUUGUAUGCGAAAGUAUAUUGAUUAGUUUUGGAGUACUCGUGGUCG; settings: 37 °C
I'd appreciate it if you could label each record using self-splicing fitness (ln) and these ranges: bucket 1: < -2; bucket 2: ≥ -2 and < -1; bucket 3: ≥ -1

Example entries begin here.
Exam item: assign `CGGCAGCAAUAUUACGUACA` to the correct category.
bucket 3

Category lookup for the sequence `UUAUAGCAAUAUUACGUUAU`
bucket 1

Form field 'band' for `UAUCAGCAAUAUUACGUGGG`
bucket 2

Kindly consider the entry below.
Assign a category based on measured self-splicing fitness (ln) for `GUGAAGCAAUAUUACGGUAA` and give only the class name.
bucket 3

These data points were gathered from the supplement of paper PMC7877785.
